tested on: Melanocytes; assay: MTS cell viability, primary melanocytes; assay type: cell-based, human; conditions: Homo sapiens, Melanocyte, 96 h, 4 days
assayMetric: IC50 (nM)
Answer format: numeric, nM implied, no suffix.

# input For the compound shown here, CCC(=O)CCCCC[C@@H]1NC(=O)[C@H]2CCCCN2C(=O)[C@H]([C@@H](C)CC)NC(=O)[C@H](Cc2cn(OC)c3ccccc23)NC1=O , give the reported IC50.
# output 200

###

A collection of molecules and their measured IC50
system: H1395 cells; assay: MTS cell viability, H1395; format: cell-based, human; conditions: H1395 NSCLC, 4 days

[[record]]
molecule = "CC(/C=C/C(=O)NO)=C\\[C@@H](C)C(=O)c1ccc(N(C)C)cc1 [TSA, trichostatin A]"
assaymetric = "IC50"
testvalue = "41 nM"


# input For the molecule shown here, C/C=C1\NC(=O)[C@H]2CSSCC/C=C/[C@H](CC(=O)N[C@H](C(C)C)C(=O)N2)OC(=O)[C@H](C(C)C)NC1=O [Depsipeptide, depsipeptide] , give the reported IC50.
# output 5.3 nM

###

tested on: UACC62 melanoma cells; assay: MTS cell viability, UACC62; assay type: cell-based, human; conditions: 4 days
A collection of compounds and their measured pIC50
In plain terms, pIC50 is the concentration in mol/L turned into minus its base-10 logarithm.

[[record]]
compound = "C/C=C1\\NC(=O)[C@H]2CSSCC/C=C/[C@H](CC(=O)N[C@H](C(C)C)C(=O)N2)OC(=O)[C@H](C(C)C)NC1=O [Depsipeptide, depsipeptide]"
target = "UACC62 melanoma cells"
testvalue = 9.05


Let us move to another entry and its pIC50.
# input Could you share what pIC50 was measured for CC(/C=C/C(=O)NO)=C\[C@@H](C)C(=O)c1ccc(N(C)C)cc1 , tested on UACC62 melanoma cells?
# output 6.62

###

system: HCC1954 cells; assay: MTS cell viability, HCC1954; type: cell-based, human; settings: HCC1954 breast cancer line, 4 days
A collection of molecules and their measured IC50
Quick note: number first, unit second.

[[record]]
molecule = "CC(/C=C/C(=O)NO)=C\\[C@@H](C)C(=O)c1ccc(N(C)C)cc1"
testvalue = "91 nM"


Let us move to another entry and its IC50.
# input Could you share what IC50 was measured for C/C=C1\NC(=O)[C@H]2CSSCC/C=C/[C@H](CC(=O)N[C@H](C(C)C)C(=O)N2)OC(=O)[C@H](C(C)C)NC1=O [Depsipeptide, depsipeptide] , tested on HCC1954 cells?
# output 1.5 nM

###

test system: H2085 cells; test: MTS cell viability, H2085; assay type: cell-based, human; settings: H2085 NSCLC, 4 days
assayMetric: pIC50
In plain terms, pIC50 is the concentration in mol/L turned into minus its base-10 logarithm.

[[record]]
compound = "C/C=C1\\NC(=O)[C@H]2CSSCC/C=C/[C@H](CC(=O)N[C@H](C(C)C)C(=O)N2)OC(=O)[C@H](C(C)C)NC1=O [Depsipeptide, depsipeptide]"
assaymetric = "pIC50"
testvalue = 8.16


# input For the compound shown here, CC(/C=C/C(=O)NO)=C\[C@@H](C)C(=O)c1ccc(N(C)C)cc1 , give the reported pIC50.
# output 6.41

###

System: H1437 cells
Assay: MTS cell viability, H1437
Format: cell-based, human
Settings: H1437 NSCLC, MTS, 4 days
Procedure: All human cancer cell lines were maintained in RPMI media supplemented with 5% (lung and breast cancer cells) or 10% (melanoma cells) fetal bovine serum. […] Absorbance at 490 and 650 nm (reference wavelength) was measured by a Spectra Max (Molecular Devices, Sunnyvale, CA, USA) or a FlouroStar Omega (BMG Biosciences, Ortenberg, Germany) plate reader. […] Dose–response curves were plotted using a non-linear regression model and IC50s were determined from the fitted curves.
A collection of compounds and their measured IC50
Answer format: numeric, nM implied, no suffix.

[[record]]
compound = "CC(/C=C/C(=O)NO)=C\\[C@@H](C)C(=O)c1ccc(N(C)C)cc1 [TSA, trichostatin A]"
assaymetric = "IC50"
testvalue = 191


Let us move to another entry and its IC50.
# input For the compound shown here, C/C=C1\NC(=O)[C@H]2CSSCC/C=C/[C@H](CC(=O)N[C@H](C(C)C)C(=O)N2)OC(=O)[C@H](C(C)C)NC1=O [Depsipeptide, depsipeptide] , give the reported IC50.
# output 0.5

###

test system: HCC366 cells; test: MTS cell viability, HCC366; type: cell-based, human; conditions: HCC366 NSCLC, 4 days
A collection of compounds and their measured pIC50
In plain terms, pIC50 is the concentration in mol/L turned into minus its base-10 logarithm.

[[record]]
compound = "CC(/C=C/C(=O)NO)=C\\[C@@H](C)C(=O)c1ccc(N(C)C)cc1 [TSA, trichostatin A]"
testvalue = 6.83


# input For the compound shown here, C/C=C1\NC(=O)[C@H]2CSSCC/C=C/[C@H](CC(=O)N[C@H](C(C)C)C(=O)N2)OC(=O)[C@H](C(C)C)NC1=O [Depsipeptide, depsipeptide] , give the reported pIC50.
# output 8.51

###

system: H820 cells; experiment: MTS cell viability, H820; format: cell-based, human; details: H820 NSCLC, 4 days
assayMetric: IC50 (nM)
Answer format: numeric, nM implied, no suffix.

[[record]]
compound = "CC(/C=C/C(=O)NO)=C\\[C@@H](C)C(=O)c1ccc(N(C)C)cc1 [TSA, trichostatin A]"
testvalue = 55


# input For the compound shown here, C/C=C1\NC(=O)[C@H]2CSSCC/C=C/[C@H](CC(=O)N[C@H](C(C)C)C(=O)N2)OC(=O)[C@H](C(C)C)NC1=O [Depsipeptide, depsipeptide] , give the reported IC50.
# output 4
